Entry source: patent US20250092065A1

System: MYB
Experiment: HiBiT protein abundance assay, MYB (K562 HiBiT knock-in)
Assay type: cell-based, human
Conditions: HiBiT knock-in K562 cells, 24 hours, top dose 10 μM
recorded.endpoint: IC50

Example cases with answers are listed next.
compound	recorded.endpoint	observed.measurement
Cn1cc2cc(-c3ccc4nc(C5CCNCC5)ccc4n3)c(O)cc2n1	IC50	< 100 nM
Cc1nc2cc(O)c(-c3ccc4nc(N5CCC(N)CC5)ccc4n3)cc2o1	IC50	1000 to 10000 nM
Cn1cc2cc(-c3ccc4nc(N5CC6(CNC6)C5)ccc4n3)c(O)cc2n1	IC50	100 to 1000 nM

In: Please report the recorded IC50 for Cc1cn2cc(-c3ccc4cc(N5C[C@@H](C)N[C@@H](C)C5)cc(F)c4n3)cc(F)c2n1 .
Out: 100 to 1000 nM

In: Bench note: what IC50 did COc1cc2nn(C)cc2cc1-c1ccc2c(F)c(C3CCNCC3)ccc2n1 show?
Out: > 10000 nM

In: Dear colleague, I am looking for the recorded IC50 of the following compound: Cc1nc2c(F)c(O)c(-c3ccc4nc(N5CC[C@H](NCC6CC6)C5)ccc4n3)cc2o1 (single isomer, unassigned)
Out: < 100 nM

In: # query: IC50 of entry CNC(=O)c1nc(-c2cc3cn(C)nc3c(C)c2O)nc2ccc(N3CCN[C@@H](C)C3)cc12 (single isomer, unassigned)
Out: < 100 nM

====

System: MYB mRNA
Experiment: RT-qPCR splicing assay, MYB mRNA canonical (CJ) and alternative (AJ) junction
Assay type: cell-based, human
Details: Homo sapiens, MYB canonical junction mRNA, RT-qPCR; read-out: MYB CJ (decrease in CJ mRNA levels, IC50)
# maps each entry to its IC50

molecule	IC50
Cc1cn2cc(-c3ccc4nc(C5CCNCC5)ccc4n3)c(O)cc2n1 [Compound 149]	1 to 10 µM
Cn1cc2cc(-c3ccc4nc(N5CC[C@@H](NCC6CC6)C5)ccc4n3)c(O)c(F)c2n1 (single isomer, unassigned) [Compound 303]	< 0.1 µM

In: Consider the molecule shown here: CC(C)(C)NC1CCN(c2ccc3nc(-c4cc5cnccc5cc4O)ccc3n2)C1 (stereo not drawn) [Compound 166] What is its recorded IC50?
Out: > 10 µM

====

Tested on: MYB mRNA
Assay: RT-qPCR splicing assay, MYB mRNA canonical (CJ) and alternative (AJ) junction
Format: cell-based, human
Conditions: Homo sapiens, RT-qPCR, MYB canonical junction mRNA decrease; read-out: MYB CJ (decrease in canonical junction mRNA, IC50)
recorded.endpoint: IC50

Some solved cases for reference:
compound	observed.measurement
Cc1cn2cc(-c3ncc4cc(N5C[C@H](C)N[C@@H](C)C5)ccc4n3)ccc2n1 [Compound 827]	100 to 1000 nM
Cc1cn2cc(-c3ncc4cc(N5C[C@@H](C)NC6(CC6)C5)ccc4n3)cc(F)c2n1 (single isomer, unassigned) [Compound 815]	100 to 1000 nM
Cc1cn2nc(-c3ccc4cc(N5C[C@H](C)N[C@@H](C)C5)cc(F)c4n3)cc(C)c2n1 (single isomer, unassigned) [Compound 799]	< 100 nM
Cc1cn2cc(-c3ncc4cc(N5C[C@@H](C)N(C)[C@@H](C)C5)ccc4n3)cc(F)c2n1 [Compound 826]	100 to 1000 nM
Cc1cn2cc(-c3nc(C(=O)NC4CCC4)c4cc(N5C[C@@H](C)N[C@@H](C)C5)ccc4n3)cc(F)c2n1 [Compound 779]	< 100 nM
C[C@H]1CN(c2ccc3nc(-c4cc(F)c5nc(CO)cn5c4)ncc3c2)C[C@H](C)N1 (single isomer, unassigned) [Compound 828]	< 100 nM

In: Give its IC50 value. Item: C[C@H]1CN(c2ccc3nc(-c4cc(F)c5nc(CF)cn5c4)ncc3c2)C[C@H](C)N1 [Compound 829]
Out: < 100 nM

In: Sample CCc1nc2cc(O)c(-c3ccc4nc(N5CC[C@@H](NC(C)(C)C)C5)ccc4n3)cc2o1 (single isomer, unassigned) [Compound 808] — what was its IC50?
Out: 1000 to 10000 nM

====

Each entry below lists one item and its recorded IC50 value.
System: Target C
Assay: RT-qPCR canonical junction panel assay, Target C mRNA
Assay type: cell-based
Settings: Table 4, read-out: Target C IC50 (decrease in CJ mRNA levels)

molecule	IC50
Cc1nc2cc(O)c(-c3ccc4nc(N5CCNC6(CC6)C5)ccc4n3)cc2o1	1000 to 10000 nM
Cc1nc2cc(O)c(-c3ccc4nc(N5CC[C@@H](NC6CCC6)C5)ccc4n3)cc2o1	100 to 1000 nM
Cn1cc2cc(-c3ccc4nc(N5CC[C@H](NCC6CC6)C5)ccc4n3)c(O)cc2n1	100 to 1000 nM
Cc1nc2cc(O)c(-c3ccc4nc(N5CCN[C@@H](C6CC6)C5)ccc4n3)cc2o1	100 to 1000 nM
Cc1c(O)c(-c2nc(C3CCC3)c3cc(N4C[C@H](C)N[C@@H](C)C4)ccc3n2)cc2cn(C)nc12 (single isomer, unassigned)	> 10000 nM

In: Consider the molecule CNC(=O)c1nc(-c2cc3cn(C)nc3c(F)c2O)nc2ccc(N3C[C@H](C)N[C@@H](C)C3)cc12 (single isomer, unassigned) and give its measured IC50.
Out: 1000 to 10000 nM

In: Fill blank: measured IC50 of the molecule Cc1nc2c(C)c(O)c(-c3ccc4nc(N5CC[C@@H](N[C@H]6C[C@@H](F)C6)C5)ccc4n3)cc2o1 (stereo in doubt) is ____.
Out: 100 to 1000 nM

====

Test system: HTT
Experiment: HiBiT protein abundance assay, HTT (K562 HiBiT knock-in)
Type: cell-based, human
Settings: HiBiT knock-in K562 cells, 24 hours, top dose 10 μM
Form field: IC50 (one value per entry).

compound	IC50
Cc1c(O)c(-c2ncc3nc(C4CCNC4)ccc3n2)cc2cn(C)nc12 (stereo not drawn) [Compound 397, trifluoroacetic acid]	1000 to 10000 nM

In: Fill in the blank: the reported IC50 of Cc1cc(=O)c2cc(O)c(-c3ccc4nc(N5CCC(NC(C)(C)C)C5)ccc4n3)cc2o1 (stereo not drawn) [Compound 174] is ____.
Out: > 10000 nM

In: Field request: IC50 | item: Cc1nc(-c2cc3cn(C)nc3cc2O)nc2ccc(N3C[C@H](C)N[C@@H](C)C3)cc12 (single isomer, unassigned) [Compound 806]
Out: 100 to 1000 nM

====

Test system: Target C
Assay: RT-qPCR canonical junction panel assay, Target C mRNA
Format: cell-based
Conditions: Table 4, read-out: Target C IC50 (decrease in CJ mRNA levels)
recorded.endpoint: IC50

molecule	IC50
Cc1c(O)c(-c2nc(C(N)=O)c3cc(N4C[C@@H](C)N[C@@H](C)C4)ccc3n2)cc2cn(C)nc12	> 10 µM
C[C@@H]1CN(c2ccc3nc(-c4cc5cn(C)nc5cc4O)nc(C(N)=O)c3c2)C[C@H](C)N1 [Compound 785, 2,2,2-trifluoroacetate]	1 to 10 µM
Cc1nc2cc(O)c(-c3ccc4nc([C@H]5CCNC6(CC6)C5)ccc4n3)cc2o1 (single isomer, unassigned)	< 0.1 µM
Cc1c(O)c(-c2ccc3cc(N4CCNCC4)cc(F)c3n2)cc2cn(C)nc12	0.1 to 1 µM
Cn1cc2cc(-c3ccc4nc(N5CCC(NCC6CC6)C5)ccc4n3)c(O)c(F)c2n1 (stereo not drawn)	< 0.1 µM

In: Reported IC50 for CCc1nc2cc(O)c(-c3ccc4nc(N5CC[C@@H](NC(C)(C)C)C5)ccc4n3)cc2o1 (single isomer, unassigned) : what is it?
Out: 1 to 10 µM

In: Param item = Cc1cn2nc(-c3ccc4nc(N5CCC(NC(C)(C)C)C5)ccc4n3)cc(C)c2n1 (stereo not drawn) ; retrieve measured IC50.
Out: < 0.1 µM

In: Would you mind telling me what IC50 value was observed for Cc1nc2cc(O)c(-c3ccc4nc(N5CCN[C@H](C6CC6)C5)ccc4n3)cc2o1 ?
Out: 0.1 to 1 µM

In: Would you mind telling me what IC50 value was observed for Cn1cc2cc(-c3ccc4nc(N5CCC(NC67CC(C6)C7)C5)ccc4n3)c(O)cc2n1 (stereo not drawn) ?
Out: > 10 µM

In: Any idea what its IC50 is? The molecule is CN[C@@H]1CCN(c2ccc3nc(-c4cc(C#N)c5nc(C)cn5c4)ncc3n2)C1
Out: 1 to 10 µM

In: Query (molecule): C[C@H]1CN(c2ccc3nc(-c4cc(F)c5nncn5c4)ncc3c2)C[C@H](C)N1 (single isomer, unassigned) ; field requested: IC50
Out: > 10 µM

In: For the molecule Cc1nc2cc(O)c(-c3ccc4nc(N5CCC(NC(C)C)C5)ccc4n3)cc2o1 (stereo not drawn) , what IC50 is on record?
Out: < 0.1 µM

In: IC50 for Cc1nc2cc(O)c(-c3ccc4nc(N5CC[C@H](NC6(CF)CC6)C5)ccc4n3)cc2o1 (single isomer, unassigned) ?
Out: 0.1 to 1 µM

In: May I ask what IC50 has been recorded for Cc1nc2c(C)c(O)c(-c3ccc4nc(N5CCC(NC6(C)CC6)C5)ccc4n3)cc2o1 (stereo not drawn) ?
Out: < 0.1 µM

In: Fill blank: measured IC50 of the molecule CNC(=O)c1nc(-c2cc3cn(C)nc3cc2O)nc2ccc(N3C[C@@H](C)N[C@@H](C)C3)cc12 is ____.
Out: > 10 µM
